Provide the reported GI50 of each item.
Tested on: EKVX
Test: NCI tumour cell line growth inhibition, 48 h
Calls of active or inactive are those of the source. Cut-off read from the data, not from the text of the source: active = GI50 up to about 1.1 µM and inactive = higher. Peptide text beside a SMILES is read from it. * marks the point of attachment. OSu = O=C1CCC(=O)N1O*

Known results for compounds:
State its GI50: CCOC(=O)c1csc(NC(=O)C(C)N2CCOCC2)n1 (centres undefined)
> 100 µM (inactive)

State its GI50: `N[C@H](C(=O)O)[C@@H](Cl)CC(=O)O`
> 100 µM (inactive)

State its GI50: Cc1cn(C2CCC(CO)(CF)O2)c(=O)[nH]c1=O (centres undefined)
> 100 µM (inactive)

State its GI50: NCCCCC(NC(=O)C(N)Cc1ccc(O)cc1)C(=O)NC(CCCCN)C(=O)NC(CCCCN)C(=O)ON1C(=O)CCC1=O (centres undefined) (H-YKKK-OSu; configuration not given here)
> 100 µM (inactive)

# batch: return GI50 for each of the 4 compounds below
1. N=c1oc2ccc([N+](=O)[O-])cc2cc1C(=O)Nc1ccccn1
2. CC(C)(CO)NC(=O)c1cccc(C(=O)NC(C)(C)CO)c1Br
3. COc1cccc(N2C(=O)C3c4[nH]c5ccccc5c4C4c5ccccc5CCC4C3C2=O)c1 (centres undefined)
4. COc1ccc2cccc(C(=N)c3ccc(C)c4c3CCC4)c2c1

1. 34.6 µM (inactive)
2. > 100 µM (inactive)
3. > 9.31 µM (inactive)
4. 15.5 µM (inactive)

# batch: return GI50 for each of the 6 compounds below
1. COc1cccc([C@@H]2C/C(=N\NC(=O)C(=O)N[C@@H](C)c3ccccc3)c3ccccc3N2)c1
2. COc1cc(O)c(Cc2ccccc2O)c(O)c1C(=O)CCc1ccccc1
3. Cc1nc(-n2nc(-c3ccccc3)cc2-c2ccccc2)sc1C(=O)CC(=O)C(=O)Nc1ccc(O)cc1
4. C/C(=C1/N=C(c2ccccc2)OC1=O)c1cccs1
5. O=C1c2sccc2C(=O)c2c(CO)csc21
6. CC(C)(Cl)C(Br)CCC(Br)(CCl)C(Cl)CBr (centres undefined)

["61.4 µM (inactive)", "6.19 µM (inactive)", "> 100 µM (inactive)", "> 100 µM (inactive)", "6.97 µM (inactive)", "> 10 µM (inactive)"]

====

System: KM12
Test: NCI tumour cell line growth inhibition, 48 h
Active and inactive are the calls of the source. Rule as the data show it: active = GI50 up to about 1.1 µM and inactive = higher.
Outcome field: choose from true (1) for active, false (0) for inactive

Known results for molecules:
// return assay outcome for CC(OC(C)(C)C)[C@H](NC(=O)OCc1ccccc1)C(=O)NC(OCc1ccccc1)[C@H]1COC(C)(C)O1 (stereo partly specified)
false (0)

// return assay outcome for `COc1ccc2cccc(C(=N)c3ccc(C)c4c3CCC4)c2c1`
false (0)

// return assay outcome for O=C(Nc1ccc(F)cc1)C(=O)C(C1OC(=O)c2ccccc21)[N+](=O)[O-] (stereo unspecified)
false (0)

// return assay outcome for Cc1ccc(NC(=O)/C(=N\NC(N)=S)C(C#N)c2ccccc2C)cc1C (stereo unspecified)
false (0)

// return assay outcome for `NC1(P(=O)(O)O)CCCCC1`
false (0)

// return assay outcome for C[Si](C)(C)/C=C/CCC(C=O)(CCCl)c1ccccc1 (stereo unspecified)
false (0)

// return assay outcome for `C/C(=C1/N=C(c2ccccc2)OC1=O)c1cccs1`
false (0)

// return assay outcome for COC(=O)c1cc(O)ccc1O [METHYL 2,5-DIHYDROXYBENZOATE]
false (0)

---
// return assay outcome for C(=C(c1ccc(OC2CCCCO2)cc1)c1ccc(OC2CCCCO2)cc1)c1ccccc1 (stereo unspecified)
true (1)

// return assay outcome for `N=c1oc2ccc([N+](=O)[O-])cc2cc1C(=O)Nc1ccccn1`
false (0)

// return assay outcome for `NCCCn1c(Cl)nc2ccccc21`
false (0)

====

System: Hs-578T
Experiment: NCI tumour cell line growth inhibition, 48 h
The source made the active and inactive calls. No stated cut-off is given here; in the data, active = GI50 up to about 1.1 µM and inactive = higher.
measured endpoint: GI50

Known results for compounds:
State its GI50: `Fc1ccc(-c2sc(-c3cccs3)cc2Cc2cccs2)cc1`
> 100 µM (inactive)

State its GI50: CC(=O)c1cccc(NC(=O)C(=O)C(c2cnc3ccc([N+](=O)[O-])cc3n2)[N+](=O)[O-])c1 (stereo not given)
> 100 µM (inactive)

State its GI50: `CC1=C(C(=O)OCc2ccncc2)C(C2=C(C)SCCS2)C(C(=O)OCc2ccncc2)=C(C)N1`
10.6 µM (inactive)

State its GI50: `N=c1oc2ccccc2cc1-c1nc2ccccc2[nH]1`
41 µM (inactive)

Next up:
State its GI50: Nc1nc2c(ncn2C2C=CC(COS(N)(=O)=O)C2)c(=O)[nH]1 (stereo not given)
> 100 µM (inactive)

====

Test system: HCT-116
Assay: NCI tumour cell line growth inhibition, 48 h
Activity calls are given as the source filed them. Cut-off read from the data, not from the text of the source: active = GI50 up to about 1.1 µM and inactive = higher.
measured endpoint: GI50

Known results for compounds:
State its GI50: CC1=NNC(=O)C1C1C(=O)NN=C(c2c[nH]c3ccccc23)C1Br (stereo unspecified)
35.7 µM (inactive)

State its GI50: `Cc1cc(C)c(S(=O)(=O)ONC(=O)OC(C)(C)C)c(C)c1`
> 100 µM (inactive)

State its GI50: `CCCN1C(=O)CN(S(=O)(=O)c2ccc(Cl)cc2)C1=O`
> 100 µM (inactive)

State its GI50: `CCCCNC(=S)Nn1c(-c2ccccc2)nc2ccccc2c1=O`
> 100 µM (inactive)

State its GI50: `NCCCCCS(=O)(=O)O`
> 100 µM (inactive)

---
State its GI50: `Cn1c2ccccc2c(=O)c2c([N+](=O)[O-])ccc(NCCN)c21`
3.73 µM (inactive)

====

Test system: NCI-H23
Assay: NCI tumour cell line growth inhibition, 48 h
Counter-ions that a name gives are not always drawn. Activity calls are given as the source filed them. Cut-off read from the data, not from the text of the source: active = GI50 up to about 1.1 µM and inactive = higher.
measured endpoint: GI50

State its GI50: `Cc1c(CCOC=O)c(=O)[nH]c2nncn12`
> 100 µM (inactive)

State its GI50: O=C1C(Cl)C(c2cccc(O)c2)N1n1cnc2ccccc2c1=O (centres undefined)
> 100 µM (inactive)

State its GI50: `O=C(Nc1nnc(-c2c(Cl)c(Cl)c(Cl)c(Cl)c2-c2nc3cc(C(=O)c4ccccc4)ccc3[nH]2)o1)c1ccc(Cl)cc1`
26.8 µM (inactive)

State its GI50: NC(CSCc1ccccc1)C(=O)O (centres undefined)
> 100 µM (inactive)

State its GI50: `N#Cc1c(N)nc(-c2ccc(Cl)cc2)c2c1-c1ccccc1S(=O)(=O)CC2`
66.2 µM (inactive)

# batch: return GI50 for each of the 8 molecules below
1. CC1(C)OC2COC(c3n[nH]c4c(=O)[nH]c(=O)[nH]c34)C2O1 (centres undefined)
2. CC(C)(C=O)CC(C#N)/C(=N\NC(N)=O)C(=O)Nc1ccccc1C(N)=O (centres undefined)
3. O=c1c2cc(I)ccc2nc(SCc2n[nH]c(=S)o2)n1Cc1ccccc1
4. O=C1c2sccc2C(=O)c2c(CO)csc21
5. N=c1ccn2c(n1)O[C@H]1[C@H](O)[C@@H](CO)O[C@H]12 [ANCITABINE HYDROCHLORIDE]
6. COc1ccc2cccc(C(=N)c3ccc(C)c4c3CCC4)c2c1
7. CCS(CC)(CC)CC1CCCC2=CCC(P(=O)(c3ccccc3)c3ccccc3)CC21 (centres undefined)
8. Cc1ccc(C2CC(c3ccco3)=NN2c2ccccc2)o1 (centres undefined)

["> 100 µM (inactive)", "> 100 µM (inactive)", "16.3 µM (inactive)", "2.07 µM (inactive)", "0.406 µM (active)", "7.57 µM (inactive)", "10.5 µM (inactive)", "> 100 µM (inactive)"]

====

Test system: SW-620
Experiment: NCI tumour cell line growth inhibition, 48 h
Calls of active or inactive are those of the source. No stated cut-off is given here; in the data, active = GI50 up to about 1.1 µM and inactive = higher.
Provide the reported GI50 of each item.

Known results for compounds:
State its GI50: `COc1cccc(/C=C\c2ccc(O)cc2)c1`
15.2 µM (inactive)

State its GI50: `COc1cc(Cn2c3c(c4c(CN(C)C)c(O)ccc42)C(=O)c2ccccc2C3=O)cc(OC)c1`
18.7 µM (inactive)

# batch: return GI50 for each of the 6 compounds below
1. OC1C#CCSCC#C/C=C\1 (stereo not given)
2. Cc1c(F)c(N)c2c(=O)cc(-c3ccc(NC(=O)CN(C)C)c(F)c3)oc2c1F
3. N#Cc1cc(NC(=O)c2ccccc2)c(=O)n2c1[nH]c1ccccc12
4. Cc1cn(C2CC(O)C(COC(N)=O)O2)c(=O)[nH]c1=O (stereo not given)
5. O=c1[nH]c(Br)nc2c(Br)c[nH]c12
6. C/C(=N/NC(=S)N1CCCCC1)c1cccc(/C(C)=N\NC(=S)N2CCCCC2)n1

1. 18.4 µM (inactive)
2. 18.3 µM (inactive)
3. 39 µM (inactive)
4. > 100 µM (inactive)
5. > 100 µM (inactive)
6. 3.15 µM (inactive)

# batch: return GI50 for each of the 2 compounds below
1. O=c1[nH]c(=O)n(C2CC(O)C(CO)O2)c2nc3ccc4ccccc4c3nc12 (stereo not given)
2. CC(C)c1ccccc1SC1CC(=O)CC(Sc2ccccc2C(C)C)C12O[C@H](c1ccccc1)[C@@H](c1ccccc1)O2 (stereo not given in full)

1: 99.8 µM (inactive); 2: 39.2 µM (inactive)
